Source of measurements: patent US7932271B2

Observed property: melting point

INSERT INTO assay_data (compound, observed_property, data_value) VALUES
  ('O=C(O)CCc1cc(C(c2cc(F)ccc2F)S(=O)(=O)c2ccc(C(F)(F)F)cc2)c(Cl)cn1 (stereo not drawn) [Example 267]', 'melting point', '166 to 167 °C'),
  ('Nc1cc(C(c2cc(F)ccc2F)S(=O)(=O)c2ccc(Cl)cn2)c(Cl)cn1 (stereo not drawn) [Example 241]', 'melting point', '187 to 189 °C'),
  ('CN1CCN(S(=O)(=O)Nc2cc(C(c3cc(F)ccc3F)S(=O)(=O)c3ccc(Cl)cc3)c(Cl)cn2)CC1 (stereo not drawn) [Example 271]', 'melting point', '215 to 218 °C'),
  ('O=S(=O)(c1ccc(Cl)cc1)C(c1ccncc1)c1cc(F)ccc1F (stereo not drawn) [Example 20]', 'melting point', '126 to 127 °C'),
  ('O=C(O)CCCc1cc(C(c2cc(F)ccc2F)S(=O)(=O)c2ccc(Cl)cc2)c(Cl)cn1 (stereo not drawn) [Example 289]', 'melting point', '147 to 148 °C'),
  ('O=S(=O)(c1ccc(Cl)cc1)C(c1ccc[n+]([O-])c1)c1cc(F)ccc1F (stereo not drawn) [Example 51]', 'melting point', '183 to 184 °C');

Inquiry: Recorded melting point for O=C(O)CCc1cnc(C(c2cc(F)ccc2F)S(=O)(=O)c2ccc(Cl)cc2)c(F)c1 (stereo not drawn) [Example 133] , please?
Reply text: 174 to 176 °C

Inquiry: Recorded melting point for O=S(=O)(c1ccc(Cl)cc1)C(c1nccs1)c1cc(F)ccc1F (stereo not drawn) [Example 30] , please?
Reply text: 163 to 164 °C

Inquiry: Recorded melting point for N#Cc1ccc(S(=O)(=O)C(c2cc(F)ccc2F)c2cc(N)ncc2Cl)cc1 (stereo not drawn) [Example 246] , please?
Reply text: 233 to 235 °C

Inquiry: Recorded melting point for O=S(=O)(c1ccc(Cl)cc1)C(c1ccc(CO)cn1)c1cc(F)ccc1F (stereo not drawn) [Example 43] , please?
Reply text: 151 to 152 °C

Inquiry: Recorded melting point for O=C1C(C(c2cc(F)ccc2F)S(=O)(=O)c2ccc(Cl)cc2)CCCN1CCCO (stereo not drawn) [Example 153] , please?
Reply text: 120 to 121 °C

Inquiry: Recorded melting point for Nc1cc(C(c2cc(F)ccc2F)S(=O)(=O)c2ccc(F)cc2)c(Cl)cn1 (stereo not drawn) [Example 215] , please?
Reply text: 157 to 159 °C

Inquiry: Recorded melting point for O=C1CCCN1CCCNc1cc(C(c2cc(F)ccc2F)S(=O)(=O)c2ccc(Cl)cc2)c(Cl)cn1 (stereo not drawn) [Example 169] , please?
Reply text: 78 to 80 °C

Inquiry: Recorded melting point for Cl.O=S(=O)(c1ccc(Cl)cc1)C(c1cc(F)ccc1F)C1CCNCC1 (stereo not drawn) , please?
Reply text: 184 to 190 °C

Inquiry: Recorded melting point for Nc1cc(C(c2cc(F)ccc2F)S(=O)(=O)c2ccc(F)c(F)c2)c(Cl)cn1 (stereo not drawn) [Example 247] , please?
Reply text: 140 to 141 °C

Inquiry: Recorded melting point for Fc1ccc(SC(c2cc(F)ccc2F)c2cc(Cl)ncc2Cl)cc1 (stereo not drawn) [Example 177] , please?
Reply text: 95 to 97 °C

Inquiry: Recorded melting point for Cc1ccnc(C(c2cc(F)ccc2F)S(=O)(=O)c2ccc(Cl)cc2)c1 (stereo not drawn) [Example 16] , please?
Reply text: 116 to 117 °C
